Cited source: paper PMC7038937

tested_target: dsRBD3/4 Q212A Q215A (Homo sapiens, UniProt O95793-2 102-274, Q212A;Q215A)
Sequence (O95793 183-355 Q293A/Q296A): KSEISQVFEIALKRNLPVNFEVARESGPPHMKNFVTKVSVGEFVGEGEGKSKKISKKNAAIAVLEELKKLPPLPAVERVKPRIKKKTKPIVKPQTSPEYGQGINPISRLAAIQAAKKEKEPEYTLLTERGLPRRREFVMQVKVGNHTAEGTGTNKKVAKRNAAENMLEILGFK
test: fluorescence anisotropy
outcome_measure: Kd (nM)
Please give a number only; it is taken to be in nM.

Input line: Write down Kd measured for item GGCAGAAGCUGCCUCUUCGGAGGCAGUUUCUGCC (structured_RNA) [top 2/3 ARF1 SBS (sARF1 SBS)]
Output line: 15.3
